- system_tested: GII.4 Saga (P-domain) (Norovirus GII.4, UniProt B5BTR7)
- protocol: Re-evaluation of previously reported STD NMR titrations, one-site binding model
- Set-up: species or system human norovirus (HuNoV)
- condition_set: 25 mM PBS pH* 7.40, 300 mM NaCl; 298 K; refit of titration data of ref [2] (Mallagaray et al., Angew Chem Int Ed 2015); read-out: KD in mM (reevaluated)
endpoint: Kd (mM)

molecule: CO[C@@H]1O[C@@H](C)[C@@H](O)[C@@H](O)[C@@H]1O [Fuc 8, methyl α-L-fucopyranoside]
units: mM
measured_value: 15.6

====

- system_tested: GII.4 Saga (P-domain) (Norovirus GII.4, UniProt B5BTR7)
- protocol: Re-evaluation of previously reported STD NMR titrations, one-site binding model
- Set-up: species or system human norovirus (HuNoV)
- condition_set: 25 mM BisTris-d19 pH* 6.5, 300 mM NaCl; 298 K; refit of titration data of ref [2]; read-out: KD in mM (reevaluated)
endpoint: Kd

molecule: CO[C@@H]1O[C@@H](C)[C@@H](O)[C@@H](O)[C@@H]1O [Fuc 8, methyl α-L-fucopyranoside]
system_tested: GII.4 Saga (P-domain) (Norovirus GII.4, UniProt B5BTR7)
endpoint: Kd
measured_value: 15.1 mM

Attribution: paper PMC8001558
